Values were extracted from the supplement of paper PMC5412046.

System: SB.mhdgc-1
Experiment: viability at highest tested concentration (MAXR) relative to DMSO; higher = less cytotoxic
Conditions: SB.mhdgc-1 (hereditary c.1380delA CDH1 gastric cancer)
Structures can show the parent of a compound that is named as a salt.
Hi there, I'd appreciate the recorded viability for every entry that follows.
Could you write the number and then its unit?

Please review the following examples before continuing.
molecule | viability
COc1cc(C(=O)NC2CCN(C)CC2)ccc1Nc1ncc2c(n1)N(C1CCCC1)CCC(=O)N2C(C)C (top concentration 46.0829 µM) | 4.01%
CC(C)(S)[C@@H](N)C(=O)O [Penicillamine] (top concentration 46.0829 µM) | 135%
CC[C@]12CC[C@H]3[C@@H](CCC/4=C/C(=O)CC[C@H]34)[C@@H]1\C=C/[C@@]2(O)C#C [Gestodene] (top concentration 46.0829 µM) | 6.32%

// each molecule listed below needs its viability
1. Nc1nc(N)c(N=O)c(OCC2CCCCC2)n1 [NU-6027] (top concentration 46.0829 µM)
2. CC[C@H](CC#N)OC(=O)N[C@@H](C)c1cccc(NC(=O)Nc2ccc(-c3cnco3)c(OC)c2)c1 [AVN-944] (top concentration 46.0829 µM)
3. COc1ccc(C(CN(C)C)C2(O)CCCCC2)cc1 (stereo unspecified) [Venlafaxine hydrochloride] (top concentration 46.0829 µM)

Response:
1. 53.7%
2. 69.5%
3. 90.6%

* * *

Hi there, I'd appreciate the recorded viability for every entry that follows.
Test system: SB.msgc-1
Assay: viability at highest tested concentration (MAXR) relative to DMSO; higher = less cytotoxic
Conditions: SB.msgc-1 (sporadic gastric cancer)
Where a name gives a salt, the structure may show the parent alone.
Numbers only, in %.

Please review the following examples before continuing.
compound | result
Nc1ccc(C(=O)Nc2cccc(-c3nc(N4CCOCC4)c4oc5ncccc5c4n3)c2)cn1 (top concentration 46.0829 µM) | 41.6
O=C(Nc1ccncc1)C(=O)c1cn(Cc2ccc(Cl)cc2)c2ccccc12 [Indibulin] (top concentration 46.0829 µM) | 34.1
CN(C)CCc1c[nH]c2ccc(C[S+](=O)([O-])N3CCCC3)cc12 [Almotriptan] (top concentration 46.0829 µM) | 90.3
N[S+](=O)([O-])c1cc(Cl)c(Cl)c([S+](N)(=O)[O-])c1 [Diclofenamide] (top concentration 46.0829 µM) | 118
C=CCNc1c(O)cc2c(O)c1C[C@@H](C)C[C@H](OC)[C@H](O)[C@@H](C)/C=C(/C)[C@H](OC(N)=O)[C@@H](OC)/C=C\C=C(\C)C(=O)N2 [Retaspimycin] (top concentration 46.0829 µM) | 35.9

Continue with the next compound.
Request: Given the compound CNC[C@H](O)c1cccc(O)c1 [Phenylephrine hydrochloride] (top concentration 46.0829 µM) , write its reported viability.
Response: 122

* * *

Test system: SB.mhdgc-1
Experiment: area under the dose-response curve of % viability (trapezoidal, 11 doses) (% viability x log10 concentration); higher = less cytotoxic
Conditions: SB.mhdgc-1 (hereditary c.1380delA CDH1 gastric cancer)
Counter-ions that a name gives are not always drawn.
Hi there, I'd appreciate the recorded area under the dose-response curve for every entry that follows.
Give bare numbers.

Please review the following examples before continuing.
molecule | readout-name | result
CNCCCC12CCC(c3ccccc31)c1ccccc12 [Maprotiline hydrochloride] (top concentration 46.0829 µM) | area under the dose-response curve | 428
COc1ccc2cc(-c3[nH]c(-c4ccc([S+](C)[O-])cc4)nc3-c3ccncc3)ccc2c1 (stereo unspecified) [Tie-2 kinase inhibitor] (top concentration 46.0829 µM) | area under the dose-response curve | 520
Cc1ccc2c(c1)c1c(n2CCc2ccc(C)nc2)CCN(C)C1 [Latrepirdine hydrochloride] (top concentration 46.0829 µM) | area under the dose-response curve | 454
COCCCOc1cc(C[C@@H](C[C@H](N)[C@@H](O)C[C@H](C(=O)NCC(C)(C)C(N)=O)C(C)C)C(C)C)ccc1OC [Aliskiren hemifumarate] (top concentration 46.0829 µM) | area under the dose-response curve | 575
CC[C@H](NC(C)C)[C@H](O)c1ccc(O)c2[nH]c(=O)ccc12 [Procaterol hydrochloride] (top concentration 46.0829 µM) | area under the dose-response curve | 517

Continue with the next molecule.
Request: Given the molecule NC\1=N\C(=O)N(\C=C1)[C@@H]2O[C@H](CO)[C@@H](O)[C@@H]2O [Cytarabine] (top concentration 46.0829 µM) , write its reported area under the dose-response curve.
Response: 155

* * *

Test system: SB.msgc-1
Test: viability at highest tested concentration (MAXR) relative to DMSO; higher = less cytotoxic
Conditions: SB.msgc-1 (sporadic gastric cancer)
Binary label based on viability with cut-off 50%: below gives Condition met, not below gives Condition not met.

compound | qualitative-label
Cc1cccc(-c2nn(C(=S)Nc3ccccc3)cc2-c2ccnc3ccccc23)n1 [A 83-01] (top concentration 46.0829 µM) | Condition not met
CCOc1cc(C(=O)Nc2ccc(Cl)c(-c3nc4ccccc4[nH]3)c2)cc(OCC)c1OCC [SANT-2] (top concentration 46.0829 µM) | Condition not met
CN(C)CCN1C(=O)c2cccc3cc(N)cc(c23)C1=O [Amonafide] (top concentration 46.0829 µM) | Condition not met
FC1=CC=C(C=C1)N2/C=C\C=C(C(=O)NC3=CC=C(OC4=C5C=C[NH]C5=NC=C4)C(=C3)F)/C2=O [BMS-2] (top concentration 46.0829 µM) | Condition met
Cc1ccc(C(=O)c2cc(O)c(O)c([N+](=O)[O-])c2)cc1 [Tolcapone] (top concentration 46.0829 µM) | Condition met

Request: Is 50% strictly greater than the compound's reported viability? compound: CCCCn1c(=O)n(Cc2ccccc2F)c(=O)c2nc(Cc3ccc(NC(C)=O)cc3)[nH]c21 [cPEPCK inhibitor] (top concentration 46.0829 µM)
Response: Condition not met

* * *

Hi there, I'd appreciate the recorded area under the dose-response curve for every entry that follows.
Tested on: SB.mhdgc-1
Assay: area under the dose-response curve of % viability (trapezoidal, 11 doses) (% viability x log10 concentration); higher = less cytotoxic
Conditions: SB.mhdgc-1 (hereditary c.1380delA CDH1 gastric cancer)
One number for each entry.

compound | area under the dose-response curve
CCCOc1ccc2[nH]c(NC(=O)OC)nc2c1 [Oxibendazole] (top concentration 46.0829 µM) | 389

// each compound listed below needs its area under the dose-response curve
1. N[S+](=O)([O-])c1ccc(Nc2nc(OCC3CCCCC3)c3[nH]cnc3n2)cc1 [NU-6102] (top concentration 46.0829 µM)
2. CN(C)C(=O)[C@H](O)[C@H](Cc1ccccc1)NC(=O)c1cc2cc(Cl)ccc2[nH]1 (top concentration 46.0829 µM)

Response:
496
476

* * *

Tested on: SB.msgc-1
Assay: area under the dose-response curve of % viability (trapezoidal, 11 doses) (% viability x log10 concentration); higher = less cytotoxic
Conditions: SB.msgc-1 (sporadic gastric cancer)
Where a name gives a salt, the structure may show the parent alone.
Hi there, I'd appreciate the recorded area under the dose-response curve for every entry that follows.
Give bare numbers.

compound | area under the dose-response curve
Nc1ccc(C(=O)c2cc3c(ccc4ccccc43)[nH]2)cc1 [IPFK2] (top concentration 46.0829 µM) | 431
O=C(c1ccccc1)c1ccc2n1CCC2C(=O)O (stereo unspecified) [Ketorolac] (top concentration 46.0829 µM) | 408
CC(N[C@H]1C[C@@H]1c1ccccc1)c1ccc2c(c1)OCCO2 (stereo partly specified) [LSD1-C76] (top concentration 46.0829 µM) | 513
CC(C)C[C@H](NC(=O)CNC(=O)c1cc(Cl)ccc1Cl)B1OC(=O)CC(CC(=O)O)(C(=O)O)O1 (stereo partly specified) [Ixazomib citrate] (top concentration 46.0829 µM) | 223
O=C1NC(=O)[C@@H](c2cn3c4c(cccc24)CCC3)[C@@H]1c1c[nH]c2ccccc12 [Tivantinib] (top concentration 46.0829 µM) | 392

Request: Given the compound OC(COC1=C2C(=O)\C=C(/OC2=CC=C1)C([O-])=O)COC3=C4C(=O)\C=C(/OC4=CC=C3)C([O-])=O [Sodium cromoglycate] (top concentration 46.0829 µM) , write its reported area under the dose-response curve.
Response: 468

* * *

Test system: SB.msgc-1
Assay: area under the dose-response curve of % viability (trapezoidal, 11 doses) (% viability x log10 concentration); higher = less cytotoxic
Details: SB.msgc-1 (sporadic gastric cancer)
area under the dose-response curve vs 500: at or above is YES, below is NO.

Request: Hello, I need to know if N[S+](=O)([O-])c1cc(Cl)c(Cl)c([S+](N)(=O)[O-])c1 [Diclofenamide] (top concentration 46.0829 µM) has measured area under the dose-response curve not below 500. Thanks!
Response: YES

Request: Hello, I need to know if CN(c1nccc(=O)[nH]1)C1CCN(c2nc3ccccc3n2Cc2ccc(F)cc2)CC1 [Mizolastine] (top concentration 46.0829 µM) has measured area under the dose-response curve not below 500. Thanks!
Response: NO
